- Target Or Test System: T1, cynomolgus monkey CD40 on cells (cynomolgus monkey, UniProt P25942 21-277 (human entry))
- T1 construct: also called cyno CD40 on HEK293 cells; CD40 on cynomolgus monkey B cells
- T1 chain: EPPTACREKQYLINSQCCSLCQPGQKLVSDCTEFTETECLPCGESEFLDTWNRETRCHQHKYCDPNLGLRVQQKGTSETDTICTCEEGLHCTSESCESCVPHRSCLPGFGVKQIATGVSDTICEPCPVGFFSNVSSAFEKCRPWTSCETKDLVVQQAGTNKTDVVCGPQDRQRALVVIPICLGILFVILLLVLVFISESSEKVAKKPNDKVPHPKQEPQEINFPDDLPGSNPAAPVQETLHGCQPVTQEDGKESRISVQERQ
- Test Name: flow cytometry, HEK293 transfectants vs control cells
This section presents binders with their documented fold over control (gMFI) values.
Parameter: fold over control (gMFI) (fold)

1) 29H10 (antibody, V domains shown, also called 4877-1) VH: QVQLVQSGAEVTKPGASVKVSCKASGYTFAGYYMHWVRQAPGQGLEWMGWINPHSGGTNYAQKFQDRVTMTRDTSINTAYMELSRLRSDDTAVYYCARERISMVRGVGHNWFAPWGQGTLVTVSS VL: DIQMTQSPSSLSASVGDRVTITCRASQDISNNLAWFQQKPGKPPKSLMYAASSLHSGVPSTFSGSGSGTDFTFTISSLQPEDFATYYCQQYNSYPLTFGGGTKVEIRR ... 71
2) 35F11 (antibody, IgG4, V domains shown, also called 4868-1) VH: QVQLVESGGGVVQPGRSLRLSCAASGFTLSSYGMHWVRQAPGKGLEWVAVIWYDGSNKYYADSVKGRVTISRDNSKNTLYLQMNSLRAEDTAVYYCTRDGRNYVYFDNWGQGTLVTVSS VL: QSALTQPRSVSGSPGQSVTISCTGTSSDVGGYIFVSWYQQHPGKAPKLMIYDVSKRPSGVPDRFSGSKSVNTASLTISGLQAEDETDYYCCSYAGNYTYVFGTGTKVTVLG ... 76
3) 4G7 (antibody, IgG4, V domains shown, also called 4869-1) VH: QVQLVQSGAEVKKPGASVKVSCKASGYTFAGYYMHWVRQAPGQGLEWMGWINPDSGGTNFAQQFQGRVTMTRDTSISTAYMEVSRLRSDDTAVFYCAREKITMTGIYFDYWGQGTLVTVSS VL: DIQMTQSPSSLSASVGDILTITCRASQNITTYLNWYQQKPGKAPNLLISAASRLRSGVPSRFSGSGSGTDFTLTISSLQPVDFTTFYCQQTFTTPWTFGQGTKVEIKR ... 57
4) 37A6 (antibody, IgG4, V domains shown, also called 4865-1) VH: QVQLVESGGGLVKPGGSLRLSCAASEFTFSDYYMSWIRQAPGKGLEWVSYISRSGDTIYYADSVKGRFTISRDNAKNSLYLQMNGLRAEDTAVYYCARDLAAGATGGLDCWGQGTLVTVSS VL: SYELTQPPSVSVSPGQTASITCSGERLGNKYICWYQQKPGQSPVLVIYQDFKRPSGIPERFSGSNSGITATLTISGTQAMDEADYYCQAWDSRTVVFGGGTKLTVLG ... 92
5) 39C2 (antibody, IgG4, V domains shown, also called 4887-1) VH: QVQLVQSGTEVKKPGASVKVSCKASGYTFPGYYMHWVRQAPGQGLEWMGWINPDSGGTKYTQKFQGRVTLTRDASVSTAYIDLNRLRSDDTAVYYCARERCRTTNCYLDYWGQGSLVTVSS VL: QSALTQPASVSGSPGQSITISCTGTSSDVGNYNLVSWYQQHPGKAPKLMIYEVNRRPSGVSNRFSGSKSGNTASLTISGLQAEDEAEYYCCSYAGRDTFVVFGGGTKLTVLG ... 87

Source of measurements: patent US20260109776A1
